Data provenance is patent US20250186627A1.

Test system: NRG-mice bearing LNCaP tumors
Test: Biodistribution (and PET/SPECT imaging) in NRG-mice bearing LNCaP tumors
Assay type: in vivo
Settings: 3 h p.i., Avg
Experimental: LNCaP cell line was obtained from ATCC (LNCaP clone FGC, CRL-1740). It was established from a metastatic site of left supraclavicular lymph node of human prostatic adenocarcinoma. […] The collected cells number was counted with a Hausser Scientific (Horsham, PA) Hemacytometer. […] PET imaging experiments were conducted using Siemens Inveon micro PET/CT scanner. […] Then, a 10-min static PET imaging or a one hour (30 min×2 frames) of static SPECT scan was performed to determined uptake in tumor and other organs. […]
*1 amine or outer side, *2 acyl side, *3 side chain or, on linkers, in order; H or OH if unused. Where a SMILES comes first, the peptide text is derived from it. [ ]: non-standard residue; d: D form. The star is where a group is joined. ξ: configuration not given here. ξLys(Nα-CO-ξAad) = O=C(O)CCCC(NC(=O)NC(CCCCN*)C(=O)O)C(=O)O; Butanoyl(4-(4-NO2Ph)) = O=C(CCCc1ccc([N+](=O)[O-])cc1)*; DOTA = O=C(O)CN1CCN(CC(=O)O)CCN(CC(=O)*)CCN(CC(=O)O)CC1; ξAla(9-anthryl) = NC(Cc1c2ccccc2cc2ccccc12)C(=O)O; X1 = O=C(C1CCC(CN[*:1])CC1)[*:2]; ξK = NCCCCC(N)C(=O)O
endpoint.label: Biodistribution: Brain (% ID/g)

INSERT INTO results (compound, value) VALUES
  ('O=C([O-])CN1CCN(CC(=O)[O-])CCN(CC(=O)NCCCCC(NC(=O)CNC(=O)CCCc2ccc([N+](=O)[O-])cc2)C(=O)NCC(=O)NCC2CCC(C(=O)NC(Cc3c4ccccc4cc4ccccc34)C(=O)NCCCCC(NC(=O)NC(CCCC(=O)O)C(=O)O)C(=O)O)CC2)CCN(CC(=O)[O-])CC1.[177Lu+3] (stereo not drawn) [^177Lu-CCZ02017] ({Butanoyl(4-(4-NO2Ph))}-G[ξK](DOTA)G[X1][ξAla(9-anthryl)]-{ξLys(Nα-CO-ξAad)})', 0.24),
  ('COc1ccc(CCCC(=O)NCC(=O)NC(CCCCNC(=O)CN2CCN(CC(=O)[O-])CCN(CC(=O)[O-])CCN(CC(=O)[O-])CC2)CC(=O)NCC2CCC(C(=O)NC(Cc3c4ccccc4cc4ccccc34)C(=O)NCCCCC(NC(=O)NC(CCCC(=O)O)C(=O)O)C(=O)O)CC2)cc1.[68Ga+3] (stereo not drawn) [^68Ga-CCZ02015]', 0.19),
  ('COc1ccc(CCCC(=O)NCC(=O)NC(CCCCNC(=O)CN2CCN(CC(=O)[O-])CCN(CC(=O)[O-])CCN(CC(=O)[O-])CC2)CC(=O)NCC2CCC(C(=O)NC(Cc3c4ccccc4cc4ccccc34)C(=O)NCCCCC(NC(=O)NC(CC(F)C(=O)O)C(=O)O)C(=O)O)CC2)cc1.[177Lu+3] (stereo not drawn) [^177Lu-CCZ02019]', 0.18);

* * *

Test system: NRG-mice bearing LNCaP tumors
Assay: Biodistribution (and PET/SPECT imaging) in NRG-mice bearing LNCaP tumors
Type: in vivo
Conditions: 24 h p.i., Avg
*1 amine or outer side, *2 acyl side, *3 side chain or, on linkers, in order; H or OH if unused. Where a SMILES comes first, the peptide text is derived from it. [ ]: non-standard residue; d: D form. The star is where a group is joined. ξ: configuration not given here. ξLys(Nα-CO-ξAad) = O=C(O)CCCC(NC(=O)NC(CCCCN*)C(=O)O)C(=O)O; Butanoyl(4-(4-NO2Ph)) = O=C(CCCc1ccc([N+](=O)[O-])cc1)*; DOTA = O=C(O)CN1CCN(CC(=O)O)CCN(CC(=O)*)CCN(CC(=O)O)CC1; ξAla(9-anthryl) = NC(Cc1c2ccccc2cc2ccccc12)C(=O)O; X1 = O=C(C1CCC(CN[*:1])CC1)[*:2]; ξK = NCCCCC(N)C(=O)O
endpoint.label: Biodistribution: Blood (% ID/g)

INSERT INTO results (molecule, endpoint_label, output_unit, value) VALUES
  ('O=C([O-])CN1CCN(CC(=O)[O-])CCN(CC(=O)NCCCCC(NC(=O)CNC(=O)CCCc2ccc([N+](=O)[O-])cc2)C(=O)NCC(=O)NCC2CCC(C(=O)NC(Cc3c4ccccc4cc4ccccc34)C(=O)NCCCCC(NC(=O)NC(CCCC(=O)O)C(=O)O)C(=O)O)CC2)CCN(CC(=O)[O-])CC1.[177Lu+3] (stereo not drawn) [^177Lu-CCZ02017] ({Butanoyl(4-(4-NO2Ph))}-G[ξK](DOTA)G[X1][ξAla(9-anthryl)]-{ξLys(Nα-CO-ξAad)})', 'Biodistribution: Blood', '% ID/g', 0.61),
  ('COc1ccc(CCCC(=O)NCC(=O)NC(CCCCNC(=O)CN2CCN(CC(=O)[O-])CCN(CC(=O)[O-])CCN(CC(=O)[O-])CC2)C(=O)NCC2CCC(C(=O)NC(Cc3c4ccccc4cc4ccccc34)C(=O)NCCCCC(NC(=O)NC(CCCC(=O)O)C(=O)O)C(=O)O)CC2)cc1.[177Lu+3] (stereo not drawn) [^177Lu-HTK03170, reference compound]', 'Biodistribution: Blood', '% ID/g', 0.73),
  ('O=C([O-])CN1CCN(CC(=O)[O-])CCN(CC(=O)NCCCCC(NC(=O)CNC(=O)CCCc2ccc([N+](=O)[O-])cc2)C(=O)NCC(=O)NCC2CCC(C(=O)NC(Cc3c4ccccc4cc4ccccc34)C(=O)NCCCCC(NC(=O)NC(CCCC(=O)O)C(=O)O)C(=O)O)CC2)CCN(CC(=O)[O-])CC1.[225Ac+3] (stereo not drawn) [^225Ac-CCZ02017] ({Butanoyl(4-(4-NO2Ph))}-G[ξK](DOTA)G[X1][ξAla(9-anthryl)]-{ξLys(Nα-CO-ξAad)})', 'Biodistribution: Blood', '% ID/g', 0.28);
